tested on: HEK-293T-RGS2-FBXO44 NanoBit cells; experiment: Cell viability assay (GF-AFC fluorescence) multiplexed with NanoBit; assay type: cell-based, Human; conditions: 100 μM, 16–18 hours, fresh powder
ENDPOINT_LABEL: Viability (% of Control)

Please review the following examples before continuing.
- COMPOUND: "CCCOc1cc(S(=O)(=O)NCC2CCCO2)ccc1Cl (centres unmarked)"
  MEASUREMENT_TARGET: "HEK-293T-RGS2-FBXO44 NanoBit cells"
  Viability (% of Control): "85.8∗∗ % of Control"
- COMPOUND: "CCOc1ccc(C(=O)NCc2ccnc(N3CCCCC3)n2)cc1"
  MEASUREMENT_TARGET: "HEK-293T-RGS2-FBXO44 NanoBit cells"
  Viability (% of Control): "89.5 % of Control"
- COMPOUND: "CSc1ccccc1C(=O)NCc1cc(C2CC2)n(C2CCCC2)n1"
  MEASUREMENT_TARGET: "HEK-293T-RGS2-FBXO44 NanoBit cells"
  Viability (% of Control): "69.2∗∗∗∗ % of Control"
- COMPOUND: "CCOc1ccc(S(=O)(=O)N(Cc2cccn2C)C2CC2)cc1F"
  MEASUREMENT_TARGET: "HEK-293T-RGS2-FBXO44 NanoBit cells"
  Viability (% of Control): "116.6 % of Control"
- COMPOUND: "CCOc1ccc(S(=O)(=O)N2CCCCCC2)cc1C"
  MEASUREMENT_TARGET: "HEK-293T-RGS2-FBXO44 NanoBit cells"
  Viability (% of Control): "80.6∗∗∗∗ % of Control"

// for each compound below, give its Viability (% of Control)
1. Cc1cc(N2CCCC2)nc(N2CCN(C(=O)c3ccccc3C)CC2)n1
2. Cc1cc(C)c(C)c(Cn2c(CCNC(=O)CCC(C)O)nc3ccccc32)c1C (centres unmarked)
3. O=C(NCC1(O)CCOc2ccccc21)C1(c2ccc(Cl)cc2)CCCC1 (centres unmarked)
4. CCOc1cc(C)c(C)cc1S(=O)(=O)N1CCN(c2ccccc2)CC1
5. O=C(N(CCc1ccccc1)Cc1ccccn1)C12CC3CC(CC(C3)C1)C2

Response:
54.1∗∗∗∗ % of Control
68.5∗∗∗∗ % of Control
116.6 % of Control
139.6 % of Control
7.5∗∗∗∗ % of Control

// for each compound below, give its Viability (% of Control)
1. O=C(Cc1ccccc1Cl)N(CCc1cccs1)C1CCOCC1
2. CCC1CCCCN1S(=O)(=O)c1cc(Br)ccc1OC (centres unmarked)
3. COC1(CNC(=O)CCc2ccccc2)C2CC3CC(C2)CC1C3 (centres unmarked)
4. CCOc1ccc(C(=O)Nc2ccc3c(c2)N(C(=O)C(C)C)CCC3)cc1OCC
5. Cc1cc(C)c(C)c(S(=O)(=O)N2CCCC2)c1C

Response:
["81.5∗∗∗∗ % of Control", "69.3∗∗∗∗ % of Control", "93.9 % of Control", "120.5 % of Control", "91.7 % of Control"]

// for each compound below, give its Viability (% of Control)
1. O=S(=O)(C1CC1)N1CCCCC(c2ccc(Cl)cc2)C1 (centres unmarked)
2. CCc1nc(C)cn1S(=O)(=O)c1cc(OC)c(C)cc1C
3. Cc1nc(N2CCN(C(=O)c3cccc(N(C)C)c3)CC2)cc(C(F)(F)F)n1
4. Cc1cccc(C(=O)N2CCN(c3nc(C)cc(N4CCCCC4)n3)CC2)c1
5. CCCCNC(=O)c1nnn(-c2ccccc2)c1C(C)C

Response:
1. 103.6 % of Control
2. 44.4∗∗∗∗ % of Control
3. 101.9 % of Control
4. 45.8∗∗∗∗ % of Control
5. 93.7 % of Control

* * *

target: RGS2-FBXO44 interaction (Homo sapiens, UniProt P41220); construct: expressed in transfected cells; experiment: RGS2-FBXO44 NanoBit assay (HEK-293T RGS2-SmBiT/LgBiT-FBXO44 stable clone #6); assay type: cell-based; conditions: concentrations 500 to 0.01 μM; RLU normalized to viability (RFU); read-out: IC50 (μM), inhibition of RGS2-FBXO44 NanoBit signal
ENDPOINT_LABEL: IC50 (µM)
One number for each entry, in µM.

Please review the following examples before continuing.
- MOLECULE: "CCCOc1cc(S(=O)(=O)NCC2CCCO2)ccc1Cl (stereo not shown) [Compound 19]"
  RESULT_UNIT: "µM"
  TEST_RESULT: 39.6
- MOLECULE: "CCOc1ccc(S(=O)(=O)N2CCCCCC2)cc1C [Compound 8]"
  RESULT_UNIT: "µM"
  TEST_RESULT: 9.2
- MOLECULE: "O=S(=O)(C1CC1)N1CCCCC(c2ccc(Cl)cc2)C1 (stereo not shown) [Compound 9]"
  RESULT_UNIT: "µM"
  TEST_RESULT: 9.7
- MOLECULE: "CCOc1ccc(S(=O)(=O)N(Cc2cccn2C)C2CC2)cc1F [Compound 6]"
  RESULT_UNIT: "µM"
  TEST_RESULT: 25.6
- MOLECULE: "COC1(CNC(=O)CCc2ccccc2)C2CC3CC(C2)CC1C3 (stereo not shown) [Compound 14]"
  RESULT_UNIT: "µM"
  TEST_RESULT: 67.4

// for each molecule below, give its IC50
1. Cc1cccc(C(=O)N2CCN(c3nc(C)cc(N4CCCCC4)n3)CC2)c1 [Compound 1]
2. CCCCNC(=O)c1nnn(-c2ccccc2)c1C(C)C [Compound 16]

Response:
1: 58; 2: 54.8

* * *

Target: RGS2-FBXO44 interaction (Homo sapiens, UniProt P41220)
Construct: expressed in transfected cells
Sequence (P41220 1-211): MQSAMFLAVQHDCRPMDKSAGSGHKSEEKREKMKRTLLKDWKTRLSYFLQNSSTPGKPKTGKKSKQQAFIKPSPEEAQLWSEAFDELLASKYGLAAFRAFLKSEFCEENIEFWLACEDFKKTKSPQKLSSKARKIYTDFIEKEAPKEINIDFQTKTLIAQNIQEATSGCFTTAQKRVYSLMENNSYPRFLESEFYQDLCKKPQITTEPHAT
Assay: RGS2-FBXO44 NanoBit assay (HEK-293T RGS2-SmBiT/LgBiT-FBXO44 stable clone #6)
Format: cell-based
Conditions: 100 μM, 16–18 hours, fresh powder; luminescence normalized to viability, vs nontreated cells
Please respond with reported % Inhibition @ 100 μM of RGS2-FBXO44 NanoBit signal for every item in the list.

Please review the following examples before continuing.
- MOLECULE: "CCC1CCCCN1S(=O)(=O)c1cc(Br)ccc1OC (stereo not shown)"
  TEST_RESULT: "71.7∗∗∗∗ %"
- MOLECULE: "Cc1nc(N2CCN(C(=O)c3cccc(N(C)C)c3)CC2)cc(C(F)(F)F)n1"
  TEST_RESULT: "68.0∗∗∗∗ %"
- MOLECULE: "Cc1cc(N2CCCC2)nc(N2CCN(C(=O)c3ccccc3C)CC2)n1"
  TEST_RESULT: "40.6∗∗∗∗ %"

// for each molecule below, give its % Inhibition @ 100 μM of RGS2-FBXO44 NanoBit signal
1. CCCCNC(=O)c1nnn(-c2ccccc2)c1C(C)C
2. CCOc1ccc(S(=O)(=O)N(Cc2cccn2C)C2CC2)cc1F
3. CCOc1ccc(C(=O)Nc2ccc3c(c2)N(C(=O)C(C)C)CCC3)cc1OCC
4. CCc1nc(C)cn1S(=O)(=O)c1cc(OC)c(C)cc1C
5. CCOc1ccc(S(=O)(=O)N2CCCCCC2)cc1C
6. Cc1cc(C)c(C)c(S(=O)(=O)N2CCCC2)c1C
7. O=C(NCC1(O)CCOc2ccccc21)C1(c2ccc(Cl)cc2)CCCC1 (stereo not shown)
8. O=C(Cc1ccccc1Cl)N(CCc1cccs1)C1CCOCC1

Response:
75.8∗∗∗∗ %
36.8∗∗∗∗ %
44.5∗∗∗∗ %
67.3∗∗∗∗ %
86.1∗∗∗∗ %
56.5∗∗∗∗ %
32.6∗∗∗∗ %
51.2∗∗∗∗ %

// for each molecule below, give its % Inhibition @ 100 μM of RGS2-FBXO44 NanoBit signal
1. CCCOc1cc(S(=O)(=O)NCC2CCCO2)ccc1Cl (stereo not shown)
2. CCOc1cc(C)c(C)cc1S(=O)(=O)N1CCN(c2ccccc2)CC1
3. COC1(CNC(=O)CCc2ccccc2)C2CC3CC(C2)CC1C3 (stereo not shown)
4. O=S(=O)(C1CC1)N1CCCCC(c2ccc(Cl)cc2)C1 (stereo not shown)

Response:
74.8∗∗∗∗ %
49.6∗∗∗∗ %
70.7∗∗∗∗ %
74.5∗∗∗∗ %

// for each molecule below, give its % Inhibition @ 100 μM of RGS2-FBXO44 NanoBit signal
1. CSc1ccccc1C(=O)NCc1cc(C2CC2)n(C2CCCC2)n1
2. Cc1cccc(C(=O)N2CCN(c3nc(C)cc(N4CCCCC4)n3)CC2)c1
3. Cc1cc(C)c(C)c(Cn2c(CCNC(=O)CCC(C)O)nc3ccccc32)c1C (stereo not shown)
4. CCOc1ccc(C(=O)NCc2ccnc(N3CCCCC3)n2)cc1

Response:
69.0∗∗∗∗ %
48.9∗∗∗∗ %
50.2∗∗∗∗ %
47.2∗∗∗∗ %
